Value source: ChEMBL document CHEMBL2010711

# Test system: CAKI-1
# experiment-description: Cytotoxicity against human CAKI-1 cells after 48 hrs by trypan blue dye exclusion assay
# Type: functional
# experimental-parameters: CAKI-1, 48 h

- compound: "COc1ccc2c(c1)C(c1cc(OC)c3c(c1)OCO3)C1=C(COC1=O)N2 (configuration not stated)"
  value-relation-sign: "="
  GI50, nM: 709
- compound: "COc1ccc2c(c1)NC1=C(C(=O)OC1)C2c1cc(OC)c2c(c1)OCO2 (configuration not stated)"
  value-relation-sign: "="
  GI50, nM: 50.2
- compound: "COc1cc([C@@H]2c3cc4c(cc3[C@H](O)[C@H]3COC(=O)[C@H]23)OCO4)cc(OC)c1OC [PODOFILOX]"
  value-relation-sign: "="
  GI50, nM: 89.7
- compound: "COc1ccc2c(c1)OC1=C(C(=O)OC1)C2c1cc(OC)c2c(c1)OCCO2 (configuration not stated)"
  value-relation-sign: "="
  GI50, nM: 36.3
- compound: "COc1cc(OC)cc(C2C3=C(COC3=O)Nc3cc(OC)ccc32)c1 (configuration not stated)"
  value-relation-sign: "<"
  GI50, nM: 10
- compound: "COc1ccc2c(c1)OC1=C(C(=O)OC1)C2c1cc(OC)c2c(c1)OCO2 (configuration not stated)"
  value-relation-sign: "="
  GI50, nM: 58
- compound: "COc1cc([C@H]2C3=C(COC3=O)Nc3cc4c(cc32)OCO4)cc2c1OCO2"
  value-relation-sign: "="
  GI50, nM: 128
